- protocol: Plasma levels of QC and VPA in blood of off-label treated AML patients, measured by LC/MS
- Type: in vivo, human
- cond: human, oral, Patient 2, day 65, QC 200 mg/day, VPA 300 + 600 mg/day, read-out: Plasma QC
- Description: The plasma concentration may be the blood plasma concentration or bone marrow plasma concentration. […] Plasma concentrations may be determined by liquid chromatography-mass spectrometry (LC-MS).
measurement-name: concentration at 65 day (nM)
Please respond with the number in nM and leave the unit unwritten.

// recorded concentration at 65 day for CCN(CC)CCCC(C)Nc1c2ccc(Cl)cc2nc2ccc(OC)cc12 (racemic) : 130

====

- protocol: Plasma levels of QC and VPA in blood of off-label treated AML patients, measured by LC/MS
- Assay type: in vivo, human
- cond: human, oral, Plasma VPA, Patient 1, day 25, QC 200 mg/day, VPA 600 + 1200 mg/day
measurement-name: concentration at 25 day (µM)
Please respond with the number in µM and leave the unit unwritten.

// recorded concentration at 25 day for CCCC(CCC)C(=O)O [VPA, 2-propylvaleric acid] : 43
